Property: viability; scope: individual molecules
measurement-protocol: drug combination growth inhibition, ovarian cancer – cell-based, oncology-focused library, rucaparib conditional, profiling panel (AID 1508598)
assay-context: patient-derived ovarian cancer cells, CellTiter-Glo viability, 144 h; at 1.25 µM; OCI-P5x cells; without rucaparib; stronger effect = lower value
Express it in %; write the number only.

O=C(Cc1ccc(-c2ccc(OCCN3CCOCC3)cc2)cn1)NCc1ccccc1 :: 17.4
CC(C)C[C@H](NC(=O)CNC(=O)c1cc(Cl)ccc1Cl)B1OC(=O)CC(CC(=O)O)(C(=O)O)O1 (some centres undefined) :: 1.15
CC(C)(C)Cn1c(N)nc2ccc(-c3[nH]c(C(C)(C)C)nc3-c3ccc(F)cc3)nc21 :: 104

q: Hello, please tell me recorded viability for this one: `NC(=O)Nc1cc(-c2cccc(F)c2)sc1C(=O)N[C@H]1CCCNC1`
a: 9.05

q: Hello, please tell me recorded viability for this one: `C[C@@H]1CN(CC(=O)Nc2ccc3c(c2)Cc2cccc(-c4cc(=O)cc(N5CCOCC5)o4)c2S3)C[C@H](C)O1`
a: 93.8

q: Hello, please tell me recorded viability for this one: `COc1ccc(-n2c(SCCCN3C(=O)c4cccc5cccc(c45)C3=O)nnc2-c2ccncc2)cc1`
a: 77.7

q: Hello, please tell me recorded viability for this one: `CC(C)(C)c1cnc(CSc2cnc(NC(=O)C3CCNCC3)s2)o1`
a: 14

q: Hello, please tell me recorded viability for this one: `Cc1ccc(C(=O)N(CCCN)[C@@H](c2nc3cc(Cl)ccc3c(=O)n2Cc2ccccc2)C(C)C)cc1`
a: 24.3

q: Hello, please tell me recorded viability for this one: `Cc1ccc(F)c(NC(=O)Nc2ccc(-c3cccc4[nH]nc(N)c34)cc2)c1`
a: 87.8

---

Property: viability; scope: individual compounds
measurement-protocol: drug combination growth inhibition, ovarian cancer – cell-based, oncology-focused library, rucaparib conditional, profiling panel (AID 1508598)
assay-context: patient-derived ovarian cancer cells, CellTiter-Glo viability, 144 h; at 0.0195 µM; OCI-P5x cells; without rucaparib; stronger effect = lower value
Express it in %; write the number only.

q: Hello, please tell me recorded viability for this one: `CC(C)C[C@H](NC(=O)CNC(=O)c1cc(Cl)ccc1Cl)B(O)O`
a: 116

q: Hello, please tell me recorded viability for this one: Cc1nnc(C(C)C)n1C1CC2CCC(C1)N2CC[C@H](NC(=O)C1CCC(F)(F)CC1)c1ccccc1 (stereo not given in full)
a: 90.2

q: Hello, please tell me recorded viability for this one: `CC(C)(C)c1cc(NC(=O)Nc2ccc(-c3cn4c(n3)sc3cc(OCCN5CCOCC5)ccc34)cc2)no1`
a: 93.7

---

Property: fold change; scope: individual compounds
measurement-protocol: viability loss with induced miR-34 in A549 – imaging, A549 dox-inducible miR-34, nuclei and caspase counts, primary screen (AID 1347080)
assay-context: A549 miR-34 inducible, Hoechst nuclei count, 48 h; stronger effect = lower value; cell number ratio, induced over uninduced
Kindly provide the number alone.

Solved cases (4 shown):
C1CCC(NC(=NC2C3CC4CC(C3)CC2C4)N2CCOCC2)CC1 (stereo not given) :: 1.04
COc1ccc2[nH]c(I)c(CCNC(C)=O)c2c1 :: 0.928
CCCCC[C@H](O)/C=C/[C@H]1[C@H](O)CC(=O)[C@@H]1C/C=C/CCCC(=O)O :: 0.972
CC(=O)N(OCc1ccccc1)[C@@H]1c2cc(C#N)ccc2OC(C)(C)[C@H]1O :: 0.887

q: Hello, please tell me recorded fold change for this one: `CCCCC[C@](C)(O)/C=C/[C@@H]1[C@@H](C/C=C\CCCC(=O)O)[C@@H](O)C[C@H]1O`
a: 0.971

---

Property: viability; scope: individual compounds
measurement-protocol: drug combination growth inhibition, ovarian cancer – cell-based, oncology-focused library, rucaparib conditional, profiling panel (AID 1508598)
assay-context: patient-derived ovarian cancer cells, CellTiter-Glo viability, 144 h; at 0.0781 µM; OCI-C5x cells; with rucaparib 10 µM; stronger effect = lower value; 100% = cells with rucaparib alone
Express it in %; write the number only.

Solved cases (4 shown):
Cc1c(NC(=O)OC[C@@H]2COCCN2)cn2ncnc(Nc3ccc4c(cnn4Cc4cccc(F)c4)c3)c12 :: 116
O=C(c1cc(Cc2n[nH]c(=O)c3ccccc23)ccc1F)N1CCN(C(=O)C2CC2)CC1 :: 118
Fc1cc(-c2cccc3ncc(-c4cnn(C5CCNCC5)c4)nc23)cc(F)c1CN1CCOCC1 :: 99.8
CN1CCN(CCOc2cc(OC3CCOCC3)c3c(Nc4c(Cl)ccc5c4OCO5)ncnc3c2)CC1 :: 105

q: Hello, please tell me recorded viability for this one: `CCC[C@H](NC(=O)/C(C#N)=C/c1cccc(Br)n1)c1ccccc1`
a: 108

---

measurement-protocol: drug combination growth inhibition, ovarian cancer – cell-based, oncology-focused library, rucaparib conditional, profiling panel (AID 1508598)
assay-context: patient-derived ovarian cancer cells, CellTiter-Glo viability, 144 h; at 0.0195 µM; OCI-P5x cells; without rucaparib; stronger effect = lower value
Property: viability; scope: individual compounds
Express it in %; write the number only.

O=S(=O)(O)CCSSCCS(=O)(=O)O :: 104
CN(NC(=O)CC(=O)NN(C)C(=S)c1ccccc1)C(=S)c1ccccc1 :: 84.6
Nc1ccn([C@@H]2O[C@H](CO)[C@@H](O)C2(F)F)c(=O)n1 :: 22
O=c1cc(N2CCOCC2)oc2c(-c3cccc4c3sc3ccccc34)cccc12 :: 92.1
CNC(=O)c1cc(Oc2ccc(NC(=O)Nc3cc(C(C)(C)C)nn3-c3ccc4ncccc4c3)c(F)c2)ccn1 :: 97.7

q: Hello, please tell me recorded viability for this one: `CC1(COc2ccc3c(c2)ncn3-c2ccc3cccc(N4CCC(N)CC4)c3n2)COC1`
a: 127

q: Hello, please tell me recorded viability for this one: `N#Cc1c(NC(=O)c2cccc3ccccc23)sc2c1CCCC2`
a: 103

q: Hello, please tell me recorded viability for this one: `COc1cc(OC)c(/C=C/S(=O)(=O)Cc2ccc(OC)c(NCC(=O)O)c2)c(OC)c1`
a: 61.6

---

measurement-protocol: viability loss in pontine glioma line – cell-based, SU-DIPG-XVII, MIPE5.0, CellTiter-Glo, qHTS, dose response (AID 1347060);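 for AC50: cells exposed to compound for 48 hours before viability readout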
assay-context: CellTiter-Glo ATP luminescence
Records with an inconclusive call do not appear. The source made the active and inactive calls. No cut-off is given here; in the data, nearly all actives have AC50 up to about 26 µM.
Your reply should match one of these outcome classes. true (active), false (inactive)

Field: example entries. Status: answers known.
O=C(Nc1cc(Oc2cc(F)c(NC(=O)C3(C(=O)Nc4ccc(F)cc4)CC3)cc2F)ccn1)C1CC1 :: true
O=C(NCC(=O)N1CC[C@H](NC2CCC(O)(c3ccc(-c4ncccn4)cn3)CC2)C1)c1cccc(C(F)(F)F)c1 (stereo partly drawn) :: false
Nc1ccccc1NC(=O)c1ccc(CNc2nccc(-c3cccnc3)n2)cc1 :: true

q: Could you kindly confirm the outcome this assay logged for `CC(C)(C(=O)NCC(F)(F)C(F)(F)F)C(=O)N[C@@H]1C(=O)Nc2ccccc2-c2ccccc21` ?
a: false

q: Could you kindly confirm the outcome this assay logged for `CNC(=O)c1cc(Oc2ccc(NC(=O)Nc3ccc(Cl)c(C(F)(F)F)c3)c(F)c2)ccn1` ?
a: true

---

measurement-protocol: viability loss with induced miR-34 in A549 – imaging, A549 dox-inducible miR-34, nuclei and caspase counts, primary screen (AID 1347080)
assay-context: A549 miR-34 inducible, Hoechst nuclei count, 48 h; measured here: total cells with miR-34 induction; stronger effect = lower value
Property: cell count; scope: individual molecules
Kindly provide the number alone.

O=C(O)c1ccc2c(c1)CCCC2 :: 5260

q: Hello, please tell me recorded cell count for this one: CCCCCCCN(CC)CCCC(O)c1ccc(NS(C)(=O)=O)cc1 (stereo not given)
a: 7740

q: Hello, please tell me recorded cell count for this one: `Nc1nc(OCc2ccccc2)c2[nH]cnc2n1`
a: 8910

q: Hello, please tell me recorded cell count for this one: `O=[N+]([O-])c1cc(Cl)ccc1S(=O)(=O)N1CCN(Cc2ccccc2)CC1`
a: 8490

q: Hello, please tell me recorded cell count for this one: `CC(C)Oc1ccc(Cc2ccc(NC3=NCCN3)cc2)cc1`
a: 5900

q: Hello, please tell me recorded cell count for this one: `Cc1cccc(CC(=O)N2CCc3c2ccc(-c2cn(C)c4ncnc(N)c24)c3F)n1`
a: 7830

q: Hello, please tell me recorded cell count for this one: CCCCC[C@H](O)/C=C/[C@H]1C(=O)C[C@H](O)[C@@H]1C/C=C\CCCC(=O)OCC(O)CO (stereo not given in full)
a: 6090

q: Hello, please tell me recorded cell count for this one: `COC(=O)CCC[C@H](O)[C@H](O)CO`
a: 5290

q: Hello, please tell me recorded cell count for this one: `COc1cc(Nc2ncc(F)c(Nc3ccc4c(n3)N(COP(=O)(O)O)C(=O)C(C)(C)O4)n2)cc(OC)c1OC`
a: 1024

q: Hello, please tell me recorded cell count for this one: `O=C(Nc1cccc(Nc2ncc(Br)c(NCCc3cnc[nH]3)n2)c1)N1CCCC1`
a: 2420
